# Target Or Test System: T1, human Sdc2 (human, UniProt P34741 19-144, limits assumed)
# T1 construct: Antigen of the Octet tandem binning, loaded on biosensors at 100 nM; also called huSdc2; hSdc2
# T1 sequence (P34741 19-144 limits assumed): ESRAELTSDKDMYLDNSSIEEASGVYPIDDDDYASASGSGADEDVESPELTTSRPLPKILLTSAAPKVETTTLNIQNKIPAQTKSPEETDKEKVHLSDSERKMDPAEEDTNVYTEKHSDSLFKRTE
# Experiment Summary: Octet tandem binning; saturating Ab f5 19844-R4M-P3-E06

Binder	raw competing-Ab binding signal
R4M-P3-A12 (antibody, human IgG1, kappa, V domains shown) VH: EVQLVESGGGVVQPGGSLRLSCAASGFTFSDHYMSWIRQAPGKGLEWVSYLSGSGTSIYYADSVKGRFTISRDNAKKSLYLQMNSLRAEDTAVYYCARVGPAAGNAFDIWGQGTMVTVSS VL: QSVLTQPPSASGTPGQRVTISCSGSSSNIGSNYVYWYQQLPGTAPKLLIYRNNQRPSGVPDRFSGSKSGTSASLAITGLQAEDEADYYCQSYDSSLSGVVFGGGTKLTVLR	0.0642

The reported numbers originate from patent US20250282885A1.
